Measured Papp A→B at 2 h, 5 µM of individual entries
test: Apparent permeability from apical to basolateral side in MDR-MDCK cells overexpressing human p-glycoprotein at 5 uM after 120 mins; assay type: ADME, cell-based; conditions: MDCK-MDR1
Quantity measured: Papp A→B at 2 h, 5 µM (×10⁻⁶ cm/s)

1. CC(=O)O[C@@]12CO[C@@H]1C[C@H](O)[C@@]1(C)C(=O)[C@H](OC(=O)CCC(=O)O)C3=C(C)[C@@H](OC(=O)[C@H](O)[C@@H](NC(=O)c4ccccc4)c4ccccc4)C[C@@](O)([C@@H](OC(=O)c4ccccc4)[C@H]21)C3(C)C | 0.08
2. CC(=O)O[C@@]12CO[C@@H]1C[C@H](O)[C@@]1(C)C(=O)[C@H](O)C3=C(C)[C@@H](OC(=O)[C@H](O)[C@@H](NC(=O)c4ccccc4)c4ccccc4)C[C@@](O)([C@@H](OC(=O)c4ccccc4)[C@H]21)C3(C)C | 0.13
3. CC(=O)O[C@H]1C(=O)[C@]2(C)[C@@H](OC(=O)NCC(=O)O)C[C@H]3OC[C@@]3(OC(C)=O)[C@H]2[C@H](OC(=O)c2ccccc2)[C@]2(O)C[C@H](OC(=O)[C@H](O)[C@@H](NC(=O)c3ccccc3)c3ccccc3)C(C)=C1C2(C)C | 0.07
4. CC(=O)O[C@H]1C(=O)[C@@]2(C)[C@H]([C@H](OC(=O)c3ccccc3)[C@]3(O)C[C@H](OC(=O)[C@H](O)[C@@H](NC(=O)c4ccccc4)c4ccccc4)C(C)=C1C3(C)C)[C@]1(OC(C)=O)CO[C@@H]1C[C@@H]2O | 0.2
5. CC(=O)O[C@@]12CO[C@@H]1C[C@H](O)[C@@]1(C)C(=O)[C@H](OC(=O)N(C)C(C)(C)C(=O)O)C3=C(C)[C@@H](OC(=O)[C@H](O)[C@@H](NC(=O)c4ccccc4)c4ccccc4)C[C@@](O)([C@@H](OC(=O)c4ccccc4)[C@H]21)C3(C)C | 0.05
6. CC(=O)O[C@@]12CO[C@@H]1C[C@H](O)[C@@]1(C)C(=O)[C@H](OC(=O)N(C)CC(=O)O)C3=C(C)[C@@H](OC(=O)[C@H](O)[C@@H](NC(=O)c4ccccc4)c4ccccc4)C[C@@](O)([C@@H](OC(=O)c4ccccc4)[C@H]21)C3(C)C | 0.06
7. CC(=O)O[C@@]12CO[C@@H]1C[C@H](O)[C@@]1(C)C(=O)[C@H](OC(=O)NCC(=O)N(C)C)C3=C(C)[C@@H](OC(=O)[C@H](O)[C@@H](NC(=O)c4ccccc4)c4ccccc4)C[C@@](O)([C@@H](OC(=O)c4ccccc4)[C@H]21)C3(C)C | 0.09

###

Measured Papp B→A at 2 h, 5 µM of individual entries
test: Apparent permeability from basolateral to apical side in MDR-MDCK cells overexpressing human p-glycoprotein at 5 uM after 120 mins; assay type: ADME, cell-based; settings: MDCK-MDR1
Quantity measured: Papp B→A at 2 h, 5 µM (×10⁻⁶ cm/s)

1) CC(=O)O[C@@]12CO[C@@H]1C[C@H](O)[C@@]1(C)C(=O)[C@H](OC(=O)NCC(=O)O)C3=C(C)[C@@H](OC(=O)[C@H](O)[C@@H](NC(=O)c4ccccc4)c4ccccc4)C[C@@](O)([C@@H](OC(=O)c4ccccc4)[C@H]21)C3(C)C | 0.05
2) CC(=O)O[C@@]12CO[C@@H]1C[C@H](O)[C@@]1(C)C(=O)[C@H](O)C3=C(C)[C@@H](OC(=O)[C@H](O)[C@@H](NC(=O)OC(C)(C)C)c4ccccc4)C[C@@](O)([C@@H](OC(=O)c4ccccc4)[C@H]21)C3(C)C.O.O.O [DOCETAXEL] | 15.5
3) CC(=O)O[C@@]12CO[C@@H]1C[C@H](O)[C@@]1(C)C(=O)[C@H](OC(=O)CCC(=O)O)C3=C(C)[C@@H](OC(=O)[C@H](O)[C@@H](NC(=O)c4ccccc4)c4ccccc4)C[C@@](O)([C@@H](OC(=O)c4ccccc4)[C@H]21)C3(C)C | 0.1
4) CC(=O)O[C@@]12CO[C@@H]1C[C@H](O)[C@@]1(C)C(=O)[C@H](OC(=O)NCC(=O)N(C)C)C3=C(C)[C@@H](OC(=O)[C@H](O)[C@@H](NC(=O)c4ccccc4)c4ccccc4)C[C@@](O)([C@@H](OC(=O)c4ccccc4)[C@H]21)C3(C)C | 0.8
5) CC(=O)O[C@@]12CO[C@@H]1C[C@H](O)[C@@]1(C)C(=O)[C@H](OC(=O)N(C)CC(=O)O)C3=C(C)[C@@H](OC(=O)[C@H](O)[C@@H](NC(=O)c4ccccc4)c4ccccc4)C[C@@](O)([C@@H](OC(=O)c4ccccc4)[C@H]21)C3(C)C | 0.05
6) CC(=O)O[C@H]1C(=O)[C@@]2(C)[C@H]([C@H](OC(=O)c3ccccc3)[C@]3(O)C[C@H](OC(=O)[C@H](O)[C@@H](NC(=O)c4ccccc4)c4ccccc4)C(C)=C1C3(C)C)[C@]1(OC(C)=O)CO[C@@H]1C[C@@H]2O [PACLITAXEL] | 28.5
7) CC(=O)O[C@@]12CO[C@@H]1C[C@H](O)[C@@]1(C)C(=O)[C@H](OC(=O)N[C@H]3CCOC3=O)C3=C(C)[C@@H](OC(=O)[C@H](O)[C@@H](NC(=O)c4ccccc4)c4ccccc4)C[C@@](O)([C@@H](OC(=O)c4ccccc4)[C@H]21)C3(C)C | 0.21

Where these numbers come from: ChEMBL document CHEMBL1148876
